Molecular target: SHP2 (Homo sapiens (Human), UniProt Q06124)
Assay: SHP2 Allosteric Inhibition Assay
Format: biochemical
Settings: 0.5 nM SHP2 with 0.5 μM peptide IRS1_pY1172(dPEG8)pY1222; surrogate substrate DiFMUP; 25° C.; read-out: SHP2 IC50
measurement.name: IC50 (nM)

Example cases with answers are listed next.
C[C@H]1C[C@@H](N)C2(CCN(c3nc4[nH]nc(-c5ccnc(N(C)C)c5Cl)c4c(=O)n3C)CC2)C1
28
C[C@@H]1OCC2(CCN(c3nc4[nH]nc(-c5ccnc(NC6CCC6)c5Cl)c4c(=O)n3C)CC2)[C@@H]1N
35
C[C@@H]1OCC2(CCN(c3nc4[nH]nc(-c5cccc(N)c5)c4c(=O)n3C)CC2)[C@@H]1N
83
Cn1c(N2CCC3(CC2)COC[C@H]3N)nc2[nH]nc(-c3ccnc(N)c3Cl)c2c1=O
64

a: C[C@@H]1OCC2(CCN(c3nc4[nH]nc(-c5cccc(F)c5)c4c(=O)n3C)CC2)[C@@H]1N
b: C[C@@H]1OCC2(CCN(c3nc4[nH]nc(-c5ccnc(N6CC[C@@H](O)C6)c5Cl)c4c(=O)n3C)CC2)[C@@H]1N
Which of these two has the smaller recorded IC50: a or b ? Select an item and report its label.
a
